target: T1, cynomolgus PD-L1-His (Sino Biological, Cat. 90251-C08H) (cynomolgus, UniProt Q9NZQ7 19-238 (human entry))
T1 construct: Bought protein; also called Cyno PD-L1; Cynomolgus PD-L1 ECD-His; not shown: His tag
T1 sequence (Q9NZQ7 other isoform, or with tags, fused parts or gaps C08H C08H limits assumed): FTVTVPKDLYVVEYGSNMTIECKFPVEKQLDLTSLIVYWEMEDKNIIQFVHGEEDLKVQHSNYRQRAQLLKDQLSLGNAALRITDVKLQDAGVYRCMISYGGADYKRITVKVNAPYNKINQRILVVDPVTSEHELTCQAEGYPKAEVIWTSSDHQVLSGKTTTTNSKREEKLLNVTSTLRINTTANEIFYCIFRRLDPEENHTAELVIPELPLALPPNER
procedureText: BLI (Gator), cynomolgus PD-L1
measureName: koff (s⁻¹)
The response must be a number in s⁻¹ with no trailing unit.

Worked cases, koff given:
• 28B3 (antibody, human IgG1, V domains shown) VH: QSVEESGGRLVTPGTPLTLSCTASGFSLSSYYMIWVRQAPGKGLEYIGYVYTGSGNTWYASWAKGRFAISKASTTVDLMITSPTTEDTATYFCASGADGVYDWGWDIWGPGTLVTVSL VL: DIVMTQTPASVEAAVGDTVTIKCQASQSIYSLLAWYQQKPGQRPKLLIAGASNLESGVPSRFSGSGSGTEYTLTISALECADAATYYCQNNYDSGRIYGLAFGGGTEVVVK = 0.000132
• 69D10 (antibody, human IgG1, V domains shown) VH: QEQLEESGGGLVQPEGSLTLTCTASGFSFSGDWYMSWVRQAPGKGLEWIASIYSGSLNTYYATWAKGRFTVSLTSSTTVTLQMTSLTAADTATYFCARRNKNADYGHFDLWGPGTLVTVSS VL: YDMTQTPASVEVAVGGTVTIKCQASQSIGNALAWYQQKPGQPPKLLIYATSTLASGVPSRFKGSGSGTEFTLTISDLECGDAATYYCQQGWTVSSLDNAFGGGTEVVAK = 7.7e-05

Turning to the following binder.
Please supply the value of reported koff for the item 57F11 (antibody, human IgG1, V domains shown) VH: QEHLEESGGGLVQPEGALTLTCTASGFSFSGDYYMSWVRQAPGKGLEWIASIYTGSLNTYYATWAKGRFTISIASSTTVTLQVTSLTAADTATYFCARRTKNGDYGYFDLWGPGTLVTVSS VL: YDMTQTPASVEVAVGGTVTIKCQASQSINDRLAWYQQKPGQPPKLLIYAASTLASGVPSRFKGSGSGTEFTLTISDLECADAATYYCQQGWTVSSLENAFGGGTEVVAK
0.000101
